Data credit: patent US4727080A

Tested on: Citrobacter freundii ATCC 11606
methodNotes: "In vitro" MIC, Citrobacter freundii
Format: cell-based
conditions: ATCC11606; Citrobacter freundii ATCC 11606; dextrose agar, 37° C., 20 hours; read-out: "In vitro" MIC
MIC vs 1 µg/mL: less than gives T; not less than gives F.

Find out if reported MIC for `CCCn1cc(C(=O)O)c(=O)c2cc(F)c(-n3cccc3)cc21` is less than 1 µg/mL F

Find out if reported MIC for `CCNn1cc(C(=O)O)c(=O)c2cc(F)c(-n3cccc3)cc21` is less than 1 µg/mL F

Find out if reported MIC for `O=C(O)c1cn(CC2CC2)c2cc(-n3cccc3)c(F)cc2c1=O` is less than 1 µg/mL F

Find out if reported MIC for `Cn1cc(C(=O)O)c(=O)c2cc(F)c(-n3cccc3)cc21` is less than 1 µg/mL F

Find out if reported MIC for `O=C(O)c1cn(C2CC2)c2cc(-n3cccc3)c(F)cc2c1=O` is less than 1 µg/mL T
